SYSTEM: α5β3γ2 GABAA subtype receptor (Homo sapiens, UniProt P18507+P31644)
Sequence (P31644 32-462): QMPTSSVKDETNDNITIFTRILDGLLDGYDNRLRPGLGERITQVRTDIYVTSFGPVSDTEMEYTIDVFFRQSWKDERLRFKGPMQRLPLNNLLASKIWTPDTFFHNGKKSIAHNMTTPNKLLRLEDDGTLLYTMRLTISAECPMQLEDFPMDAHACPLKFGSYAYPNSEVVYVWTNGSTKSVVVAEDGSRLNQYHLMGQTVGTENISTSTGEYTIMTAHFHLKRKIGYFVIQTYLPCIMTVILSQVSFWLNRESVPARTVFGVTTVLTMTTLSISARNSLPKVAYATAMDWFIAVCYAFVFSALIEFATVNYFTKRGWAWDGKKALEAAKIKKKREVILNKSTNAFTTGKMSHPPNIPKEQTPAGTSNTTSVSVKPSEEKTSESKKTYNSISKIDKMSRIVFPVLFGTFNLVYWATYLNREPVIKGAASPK
Sequence (P28472 26-473 partner): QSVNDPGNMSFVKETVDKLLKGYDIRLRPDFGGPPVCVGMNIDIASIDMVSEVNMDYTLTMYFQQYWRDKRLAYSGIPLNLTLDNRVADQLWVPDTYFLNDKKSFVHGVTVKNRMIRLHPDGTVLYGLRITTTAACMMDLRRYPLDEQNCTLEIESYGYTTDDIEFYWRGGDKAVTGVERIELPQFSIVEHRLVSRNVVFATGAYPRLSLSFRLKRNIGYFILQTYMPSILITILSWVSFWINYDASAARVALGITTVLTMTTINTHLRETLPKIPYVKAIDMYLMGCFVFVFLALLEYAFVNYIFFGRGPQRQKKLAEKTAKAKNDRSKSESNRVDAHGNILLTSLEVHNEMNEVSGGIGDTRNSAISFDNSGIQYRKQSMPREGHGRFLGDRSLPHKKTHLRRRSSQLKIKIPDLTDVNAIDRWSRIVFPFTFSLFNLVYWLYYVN
Sequence (P18507 40-475): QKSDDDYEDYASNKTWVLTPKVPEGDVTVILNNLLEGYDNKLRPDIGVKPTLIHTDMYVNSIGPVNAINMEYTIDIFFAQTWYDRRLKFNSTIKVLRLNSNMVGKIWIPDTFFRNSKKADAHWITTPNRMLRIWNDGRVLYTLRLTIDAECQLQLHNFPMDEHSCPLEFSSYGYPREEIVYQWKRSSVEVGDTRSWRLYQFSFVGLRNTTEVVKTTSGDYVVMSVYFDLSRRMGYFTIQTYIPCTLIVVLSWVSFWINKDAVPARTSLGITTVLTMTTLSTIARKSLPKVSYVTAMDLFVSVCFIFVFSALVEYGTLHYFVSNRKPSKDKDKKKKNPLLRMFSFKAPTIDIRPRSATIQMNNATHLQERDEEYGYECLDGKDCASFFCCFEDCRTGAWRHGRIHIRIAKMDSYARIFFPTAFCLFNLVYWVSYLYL
EXPERIMENTAL DETAILS: oocyte electrophysiology, two electrode voltage-clamp, potentiation of GABA current
Assay type: cell-based
TEST CONTEXT: Xenopus oocytes, human subunits, GABA EC10; read-out: oocyte electrophysiology maximum potentiation (%) α5β3γ2
MEASURED PROPERTY: Emax

Known results for compounds:
* O=c1c2c[nH]c3ccccc3n-2c(=O)n1-c1ccc(F)cc1 | -27%
* COc1ccc(F)c(-c2ncc3[nH]c4c(c3n2)CCCC4)c1 | -22%
* c1cc2c(cc1-c1ncc3[nH]c4c(c3n1)CCCC4)OCO2 | < 10%

Input: For the record `CNCc1ccc(NC(=O)c2c[nH]c3c2C(=O)CCCC3)cc1` , what value of Emax is listed for α5β3γ2 GABAA subtype receptor (Homo sapiens, UniProt P18507+P31644)?
Output: 0%

Input: How about this compound: `CCOc1ccc(-n2c(=O)c3c[nH]c4ccccc4n-3c2=O)cc1`
Output: -11%

Input: Entry `O=C(Nc1ccccc1)c1c[nH]c2c1C(=O)CCCC2` please
Output: -20%
